Molecular target: LMP7 (purified human immuno proteasome) (Homo sapiens, UniProt P28062)
Experiment: Determination of LMP7 activity (fluorescence intensity assay, Suc-LLVY-AMC)
Type: biochemical
Conditions: LMP7 vs Beta5
Attribute Measured: Selectivity LMP7 vs Beta5

{"columns": ["Molecule", "Assay Result"],
 "data": [
  ["O=C(CCn1cc(-c2ccccc2)nn1)N[C@@H](Cc1csc2ccccc12)B(O)O [Example 104]", "+ (+: Selectivity < 10)"],
  ["O=C(CCn1cnc2ccccc21)N[C@@H](Cc1ccsc1)B(O)O [Example 33]", "+ (+: Selectivity < 10)"]
]}

###

Biological target: UniProtKB P28062
Assay: Determination of LMP7 activity (fluorescence intensity assay, Suc-LLVY-AMC)
Assay type: biochemical
Details: purified human immuno proteasome 0.5 nM, 40 μM Suc-LLVY-AMC, 37° C.
Counter-ions that a name gives are not always drawn.

{"columns": ["Molecule", "IC50"],
 "data": [
  ["COc1ccc(C(=O)CC(Cc2ccccc2)C(=O)N[C@@H](Cc2cc(F)cc(OC)c2)B(O)O)cc1 (some centres unmarked)", "< 50 nM"],
  ["CCc1cccc(C[C@H](NC(=O)CCC(=O)c2ccccc2)B(O)O)c1", "50 to 500 nM"],
  ["CCOc1cccc(C[C@H](NC(=O)CCc2noc(-c3ccccc3)n2)B(O)O)c1", "< 50 nM"],
  ["COc1ccc(C(=O)CC(Cc2ccccc2)C(=O)N[C@@H](Cc2cccc(C(F)(F)F)c2)B(O)O)cc1 (mixture of isomers)", "< 50 nM"],
  ["O=C(CCn1nnc2ccccc21)N[C@@H](Cc1ccsc1)B(O)O", "< 50 nM"],
  ["O=C(CC(C(=O)N[C@@H](Cc1ccsc1)B(O)O)c1ccc(Cl)cc1)c1ccccc1 (mixture of isomers)", "50 to 500 nM"],
  ["COc1ccc(C(=O)C[C@H](Cc2ccccc2)C(=O)N[C@@H](Cc2ccsc2)B(O)O)cc1 (single isomer, unassigned)", "< 50 nM"],
  ["O=C(CCc1noc(-c2ccccc2)n1)N[C@@H](Cc1ccsc1)B(O)O", "50 to 500 nM"],
  ["O=C(CCC(=O)c1cccc(-c2ccccc2)n1)N[C@@H](Cc1ccsc1)B(O)O", "50 to 500 nM"],
  ["O=C(CCn1ncc2ccccc21)N[C@@H](Cc1ccsc1)B(O)O", "50 to 500 nM"],
  ["CCc1cccc(C[C@H](NC(=O)CCC(=O)c2ccccc2OC)B(O)O)c1", "50 to 500 nM"],
  ["COc1ccc(C(=O)CCC(=O)N[C@@H](Cc2ccc(OC)c(C(F)(F)F)c2)B(O)O)cc1", "50 to 500 nM"],
  ["COc1ccc(C(=O)CCC(=O)N[C@@H](Cc2ccc(OC(F)(F)F)cc2)B(O)O)cc1", "50 to 500 nM"],
  ["COc1ccc(C(=O)CCC(=O)N[C@@H](Cc2ccsc2)B(O)O)cc1", "50 to 500 nM"],
  ["O=C(CCN1CCNCC1)N[C@@H](Cc1coc2ccccc12)B(O)O [Example 92, hydrochloride]", "< 50 nM"],
  ["Cn1ncc2cc(C[C@H](NC(=O)CCn3c(=O)sc4ccccc43)B(O)O)ccc21", "< 50 nM"],
  ["CCc1cccc(C[C@H](NC(=O)CCC(=O)c2cccc(-c3ccccc3)c2)B(O)O)c1", "50 to 500 nM"],
  ["COc1ccc(C(=O)CC(Cc2ccccc2)C(=O)N[C@@H](Cc2ccc(OC(F)(F)F)cc2)B(O)O)cc1 (some centres unmarked)", "< 50 nM"],
  ["CCc1cccc(C[C@H](NC(=O)CCc2noc(-c3ccccc3)n2)B(O)O)c1", "< 50 nM"],
  ["O=C(CCC(=O)c1ccccc1)N[C@@H](Cc1ccsc1)B(O)O", "50 to 500 nM"],
  ["O=C(CCC(=O)c1ccc2ccccc2c1)N[C@@H](Cc1ccsc1)B(O)O", "50 to 500 nM"],
  ["COc1cc(F)cc(C[C@H](NC(=O)CCn2cnc3ccccc32)B(O)O)c1", "< 50 nM"],
  ["O=C(CCn1cc(-c2ccccc2)nn1)N[C@@H](Cc1ccc2c(c1)OCO2)B(O)O", "< 50 nM"],
  ["COc1cc(C[C@H](NC(=O)CCn2cnc3ccccc32)B(O)O)ccc1F", "50 to 500 nM"],
  ["O=C(N[C@@H](Cc1ccsc1)B(O)O)[C@H](Cc1ccccc1)Cc1cn(-c2ccccc2)nn1", "< 50 nM"],
  ["O=C(CCc1cn(-c2cccnc2)nn1)N[C@@H](Cc1ccc2ccccc2c1)B(O)O", "< 50 nM"],
  ["COc1ccc(C[C@H](NC(=O)CCn2cnc3ccccc32)B(O)O)cc1C(F)(F)F", "< 50 nM"],
  ["O=C(CCn1cnc2ccccc21)N[C@@H](Cc1cccc(C(F)(F)F)c1)B(O)O", "< 50 nM"],
  ["CCc1cccc(C[C@H](NC(=O)Cn2ccc3ccccc3c2=O)B(O)O)c1", "50 to 500 nM"],
  ["O=C(CCn1c(=O)sc2ccccc21)N[C@@H](Cc1csc2ccccc12)B(O)O", "< 50 nM"],
  ["O=C(CCn1cnc2ccccc21)N[C@@H](Cc1ccsc1)B(O)O", "50 to 500 nM"],
  ["CCc1cccc(C[C@H](NC(=O)[C@H](CC(=O)c2ccccc2)c2ccc(Cl)cc2)B(O)O)c1 (single isomer, unassigned)", "50 to 500 nM"]
]}
